Reference source: PubChem BioAssay

For each entry below, report its z-score value.
Assay: CREB reporter modulators under forskolin, primary screen, cell-based, PC12, CRE-LacZ reporter, forskolin-stimulated (AID 1146);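 also: PC12 cells with 6xCRE LacZ reporter stimulated by forskolin 10 µM; beta-galactosidase reporter signal reflecting CREB driven transcription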
Conditions: luminescence, 4.5 h, higher = more signal, called active from +8 up or from −8 down
Answers are plain numbers.

C=C(CCCC)C(=O)CC[C@H](OC(C)=O)c1ccc(OCCO)cc1 | -0.361
COCCOC(=O)N1C(=O)[C@@]2(c3cc(C#CCCO)ccc31)[C@H](c1ccccc1OCCO)N1[C@H](c3ccccc3)[C@H](c3ccccc3)OC(=O)[C@H]1[C@@H]2C(=O)N1CCCCCCC1 | 0.481
COCCOC(=O)N1C(=O)[C@@]2(c3cc(C#CCC(C(=O)OC)C(=O)OC)ccc31)[C@H](c1ccc(OCCO)cc1)N1[C@H](c3ccccc3)[C@H](c3ccccc3)OC(=O)[C@H]1[C@@H]2C(=O)Nc1nc2ccccc2s1 | 0.282
CC(C)C[C@@H]1NC(=O)[C@@H]2C[C@H](C(=O)NCCCCCC[N+](C)(C)C)[C@H](c3cccc(OCCO)c3)N2C1=O | -0.153
COCCOC(=O)N1C(=O)[C@@]2(c3cc(C#CCC(C(=O)OC)C(=O)OC)ccc31)[C@H](c1ccc(O)cc1)N1[C@H](c3ccccc3)[C@H](c3ccccc3)OC(=O)[C@H]1[C@@H]2C(=O)NC[C@H](O)c1ccccc1 | -0.196

Dear colleague, could you send me z-score for each of the items below? Thanks.
1. CCCCC(=O)N(CCN1CCOCC1)[C@@H]1CC(C(=O)NCCO)=C[C@H](Oc2c(I)cc(CO)cc2OC)[C@H]1O
2. CO[C@H]1O[C@H](CO)[C@@H](OC(=O)CCc2ccccc2)[C@H](OC(=O)c2cc3ccccc3[nH]2)[C@H]1OC(=O)c1cc2ccccc2[nH]1
3. Cc1ccc(C(C)CC(O)C2C=CC3C(=O)N(c4ccccc4)C(=O)C3N2Nc2ccc(C#N)cc2)o1 (stereo not drawn)
4. CN(C)CCCCNC(=O)[C@H]1C[C@H]2C(=O)N[C@@H](CCCC[N+](C)(C)C)C(=O)N2[C@H]1c1ccc(O)cc1
5. C[C@]1(C(=O)O)c2ccccc2C(=O)N(Cc2ccc(OC(F)(F)F)cc2)[C@H]1c1ccc(CO)cc1
6. C=CC1c2cc(O)c(OC)cc2CCN1Cc1ccc([N+](=O)[O-])o1 (stereo not drawn)
7. NC(=O)[C@@H]1[C@H]2C(=O)O[C@H](c3ccccc3)[C@H](c3ccccc3)N2[C@H](c2ccc(OCCO)cc2)[C@@]12C(=O)Nc1ccc(C#CCCO)cc12

Reply text:
[-1.19, -1.2, -0.306, -1.14, -0.48, -0.625, -0.195]

Inquiry: Query z-score for CO[C@H]1O[C@H](CO)[C@@H](OC(=O)Nc2ccc(C#N)cc2)[C@@H]2OC(=O)[C@H](Cc3cccc(Br)c3)C/C=C/C[C@@H](Cc3cccc(Br)c3)C(=O)O[C@@H]12
Reply text: -0.404
